Sourced from PubChem BioAssay (NCI)

Measured TGI values are reported for all entries that follow.
system: HCT-116 colon; experiment: NCI tumour cell line growth inhibition, 48 h
observationType: TGI

[[record]]
compound = "C=CC1(c2ccc3ccccc3c2)OCC(CC)(CC)CO1"
targetofassay = "HCT-116 colon"
obsvalue = "43.2 µM"

[[record]]
compound = "CC1=NN(C(=O)CC(=O)Nc2ccccc2C)C(=O)C1N=Nc1ccc(S(=O)(=O)c2ccc(N=NC3C(=O)N(C(=O)CC(=O)Nc4ccccc4C)N=C3C)cc2)cc1 (configuration not stated)"
targetofassay = "HCT-116 colon"
obsvalue = "> 100 µM"

[[record]]
compound = "COc1ccc(OC)c(C2CCCc3c2cnc2nc(N)nc(N)c32)c1 (configuration not stated)"
targetofassay = "HCT-116 colon"
obsvalue = "> 100 µM"

[[record]]
compound = "COC(=O)CSc1ccccc1"
targetofassay = "HCT-116 colon"
obsvalue = "> 100 µM"

[[record]]
compound = "C=C1C(=O)O[C@H]2[C@H]1CC/C(C=Nc1ccc(C(F)(F)F)cc1N)=C\\CC[C@@]1(C)O[C@@H]21"
targetofassay = "HCT-116 colon"
obsvalue = "11 µM"

[[record]]
compound = "CCCCOP(=O)(OCCCC)/C(C#N)=C/c1ccc(C)o1"
targetofassay = "HCT-116 colon"
obsvalue = "> 100 µM"

[[record]]
compound = "CCCN(CCC)c1ccc(C=O)cc1"
targetofassay = "HCT-116 colon"
obsvalue = "> 100 µM"

[[record]]
compound = "COc1ccc(/C=C/C(=O)c2nc3ccccc3[nH]2)cc1"
targetofassay = "HCT-116 colon"
obsvalue = "18.6 µM"

[[record]]
compound = "CC(=O)c1c2c(cc3c1CC1(Cc4cc5c(cc4C1=O)CCC5)C3)CCC2 (configuration not stated)"
targetofassay = "HCT-116 colon"
obsvalue = "> 100 µM"

[[record]]
compound = "CSC(=S)N/N=C/c1ccccc1"
targetofassay = "HCT-116 colon"
obsvalue = "> 100 µM"

[[record]]
compound = "COC(=O)C(/C(=N/N)C(=O)Nc1ccc(C)c(C)c1)c1nc2ccc(Cl)cc2[nH]c1=O (configuration not stated)"
targetofassay = "HCT-116 colon"
obsvalue = "> 100 µM"

[[record]]
compound = "CCN(CC)CCCC(C)NC(=O)c1cc(-c2nccn2C)nc2ccc(C)cc12 (configuration not stated)"
targetofassay = "HCT-116 colon"
obsvalue = "> 100 µM"


###

Measured TGI values are reported for all entries that follow.
test system: RXF 393 renal; experiment: NCI tumour cell line growth inhibition, 48 h
observationType: TGI (µM)

[[record]]
compound = "Brc1ccccc1/C=C\\C1(c2ccccc2)OCCO1"
targetofassay = "RXF 393 renal"
prefixoperator = "="
obsvalue = 27.7

[[record]]
compound = "O=C(CC1(O)C(=O)Nc2c(Cl)cccc21)c1ccccc1 (centres undefined)"
targetofassay = "RXF 393 renal"
prefixoperator = ">"
obsvalue = 100

[[record]]
compound = "C(=N/Nc1ncnc2nc[nH]c12)/c1ccccn1"
targetofassay = "RXF 393 renal"
prefixoperator = "="
obsvalue = 7.32

[[record]]
compound = "COc1ccc2c(C)cc(N/N=C/c3sccc3C)nc2c1"
targetofassay = "RXF 393 renal"
prefixoperator = "="
obsvalue = 32


###

system: KM20L2 colon; experiment: NCI tumour cell line growth inhibition, 48 h
Measured TGI values are reported for all entries that follow.
observationType: TGI

[[record]]
molecule = "Cc1ccccc1N=Cc1ccc(N(CCC#N)S(=O)(=O)c2ccccc2)cc1"
obsvalue = "> 100 µM"

[[record]]
molecule = "CC1C(=O)C(C)C(c2cccs2)N(N=O)C1c1cccs1 (centres undefined)"
obsvalue = "> 100 µM"

[[record]]
molecule = "COc1cc(C2c3cc4c(cc3[C@H](NC(=O)c3cccs3)C3COC(=O)[C@H]23)OCO4)cc(OC)c1OC (some centres undefined)"
obsvalue = "0.0396 µM"

[[record]]
molecule = "[N-]=[N+]=Nc1ccccc1-[n+]1noc([O-])c1Br"
obsvalue = "> 100 µM"

[[record]]
molecule = "COc1ccc(NC(=O)CC/C(CC(=O)c2ccccc2Cl)=N\\Nc2nnc(C)n2N)cc1"
obsvalue = "> 100 µM"

[[record]]
molecule = "COc1nc(/C=N/NC(N)=S)nc(OC)n1"
obsvalue = "> 100 µM"

[[record]]
molecule = "COc1ccc(CN2C(=O)C(Cc3cc(OC)c(OC)c(C)c3OC)N(C(=O)OC(C)C)C(=O)/C2=C/c2cc(OC)c(OC)c(C)c2OC)cc1 (centres undefined)"
obsvalue = "> 100 µM"

[[record]]
molecule = "Cc1cc2cc(Cl)ccc2nc1C(=O)c1ccccc1"
obsvalue = "> 100 µM"

[[record]]
molecule = "COc1ccc2nc3cc(Cl)ccc3c(NCCC(=O)OCC(O)C(O)C(O[C@H](C)C(=O)NC(C)C(=O)NC(CCC(N)=O)C(=O)OCc3ccccc3)C(C=O)NC(C)=O)c2c1 (some centres undefined)"
obsvalue = "32.7 µM"

